System: Mycobacterium tuberculosis
measurement protocol: Antibacterial activity against Mycobacterium tuberculosis H37Ra ATCC 25177 after 7 days
Assay type: functional
assay context: H37Ra ATCC 25177, 168 h
measured metric: MIC (µM)
Numbers only, in µM.

Oc1ccc(Br)c2nc3cc(Cl)ccc3nc12 :: 6.25

Kindly give each listed record's MIC.
1. CCc1ccc2nc3c(O)c(Br)cc(Br)c3nc2c1
2. Cc1ccc2nc3c(O)ccc(Br)c3nc2c1
3. Cc1cc(C)c2nc3c(Br)ccc(O)c3nc2c1

a:
[6.25, 25, 50]

---

Tested on: Enterococcus faecium
measurement protocol: Bactericidal activity against vancomycin-resistant Enterococcus faecium ATCC 700221 planktonic cells after 24 hrs by calgary biofilm device method
Type: organism-based
measured metric: log10 MBC (log10 of the value in µM)
A value of 2 here means MBC of 100 in µM, since values are log10.

Consider the following illustrative entries.
COCCOCCOCC(=O)Oc1c(Br)cc(Br)c2nc3ccccc3nc12 :: 0.80
Oc1c(Br)cc(Br)c2nc3ccccc3nc12 :: 1.37
CS(=O)(=O)N1CCN(C(=O)Oc2c(Br)cc(Br)c3nc4ccccc4nc23)C1=O :: 0.97
CC1=C(C)C(=O)C(COC(=O)OCOc2c(Br)cc(Br)c3nc4cc(Cl)ccc4nc23)=C(C)C1=O :: 0.50
CC1=C(C)C(=O)C(COC(=O)OCOc2c(Br)cc(Br)c3nc4ccccc4nc23)=C(C)C1=O :: 1.10
CC(C)(C)c1ccc2nc3c(O)c(Br)cc(Br)c3nc2c1 :: 0.19

Respectfully, I request log10 MBC for each entry included below.
1. Cc1ccc2nc3c(O)c(Br)cc(Br)c3nc2c1
2. c1ccc(CN(CCN(Cc2ccccn2)Cc2ccccn2)Cc2ccccn2)nc1
3. CCc1ccc2nc3c(O)c(Br)cc(Br)c3nc2c1
4. CCCc1ccc2nc3c(O)c(Br)cc(Br)c3nc2c1

a:
[1.10, 2.27, 1.70, 1.40]

---

measurement protocol: Half life in human serum by LC-MS analysis
Format: ADME, cell-free
measured metric: half-life (min)
Give bare numbers, in min.

Reference set, count: 2
O=C(OCCOCCOCCOCCO)OCOc1c(Br)cc(Br)c2nc3ccccc3nc12 :: 7.3
CC1=C(C)C(=O)C(COC(=O)OCOc2c(Br)cc(Br)c3nc4ccccc4nc23)=C(C)C1=O :: 6.3

// each listed compound needs a value for half-life
1. COCCOCCOCCOC(=O)OCOc1c(Br)cc(Br)c2nc3ccccc3nc12
2. CC1=C(C)C(=O)C(COC(=O)OCOc2c(Br)cc(Br)c3nc4cc(Cl)ccc4nc23)=C(C)C1=O

a:
15.8
11.4

---

Test system: Staphylococcus aureus
measurement protocol: Bactericidal activity against methicillin-resistant Staphylococcus aureus BAA-1707 planktonic cells after 24 hrs by calgary biofilm device method
Type: organism-based
measured metric: MBC (µM)
Answers are plain numbers, in µM.

COCCOCCOCCOCCOC(=O)Oc1c(Br)cc(Br)c2nc3cc(Cl)ccc3nc12 :: 6.25

Moving on to the next compound.
q: May I ask what MBC has been recorded for CN[C@H](CC(C)C)C(=O)N[C@H]1C(=O)N[C@@H](CC(N)=O)C(=O)N[C@H]2C(=O)N[C@H]3C(=O)N[C@H](C(=O)N[C@H](C(=O)O)c4cc(O)cc(O)c4-c4cc3ccc4O)[C@H](O)c3ccc(c(Cl)c3)Oc3cc2cc(c3O[C@@H]2O[C@H](CO)[C@@H](O)[C@H](O)[C@H]2O[C@H]2C[C@](C)(N)[C@H](O)[C@H](C)O2)Oc2ccc(cc2Cl)[C@H]1O [VANCOMYCIN] ?
a: 3.9

---

Tested on: Staphylococcus aureus
measurement protocol: Bactericidal activity against methicillin-resistant Staphylococcus aureus BAA-44 planktonic cells after 24 hrs by calgary biofilm device method
Assay type: organism-based
Please respond with reported MBC for every item in the list.
One number for each entry, in µM.

Value sought for every listed molecule: MBC.
1. Oc1c(Br)cc(Br)c2nc3cc(Oc4ccccc4)ccc3nc12
2. Oc1c(Br)cc(Br)c2nc3ccccc3nc12
3. CCc1ccc2nc3c(O)c(Br)cc(Br)c3nc2c1
4. Oc1c(Br)cc(Br)c2nc3cc(Cl)ccc3nc12

a:
[25, 37.5, 75, 6.25]

---

Assign MBEC to each entry below.
System: Staphylococcus aureus
measurement protocol: Induction of biofilm eradication of methicillin-resistant Staphylococcus aureus BAA-1707 after 24 hrs by calgary biofilm device method
Type: functional

Solved entries (count: 6):
CCCc1ccc2nc3c(O)c(Br)cc(Br)c3nc2c1 :: 75 µM
COCCOCCOCC(=O)Oc1c(Br)cc(Br)c2nc3ccccc3nc12 :: 75 µM
CCCCCCCCCC(=O)N[C@@H](Cc1c[nH]c2ccccc12)C(=O)N[C@@H](CC(N)=O)C(=O)N[C@@H](CC(=O)O)C(=O)N[C@@H]1C(=O)NCC(=O)N[C@@H](CCCN)C(=O)N[C@@H](CC(=O)O)C(=O)N[C@H](C)C(=O)N[C@@H](CC(=O)O)C(=O)NCC(=O)N[C@H](CO)C(=O)N[C@@H]([C@H](C)CC(=O)O)C(=O)N[C@@H](CC(=O)c2ccccc2N)C(=O)O[C@@H]1C :: >2000 µM
Oc1c(Br)cc(Br)c2nc3ccccc3nc12 :: 150 µM
CC1=C(C)C(=O)C(COC(=O)OCOc2c(Br)cc(Br)c3nc4cc(Cl)ccc4nc23)=C(C)C1=O :: 12.5 µM
CCN(CC)c1ccc2nc3c(O)c(Br)cc(Br)c3nc2c1Br :: 4.69 µM

// switching to the query compound
q: Look at this compound and give its reported MBEC. Oc1c(Br)cc(Br)c2nc3cc(Cl)ccc3nc12
a: 4.69 µM

---

System: Staphylococcus epidermidis
measurement protocol: Induction of biofilm eradication of methicillin-resistant Staphylococcus epidermidis ATCC 35984 after 24 hrs by calgary biofilm device method
Assay type: functional
I'd appreciate it if you could supply MBEC values for the items below.
One number for each entry, in µM.

Field: example entries. Status: answers known.
CC1=C(C)C(=O)C(COC(=O)OCOc2c(Br)cc(Br)c3nc4ccccc4nc23)=C(C)C1=O :: 150
CS(=O)(=O)N1CCN(C(=O)Oc2c(Br)cc(Br)c3nc4ccccc4nc23)C1=O :: 37.5
N#CC(C#N)=NNc1cccc(Cl)c1 [CARBONYL CYANIDE M-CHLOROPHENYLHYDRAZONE] :: 93.8
Oc1c(Br)cc(Br)c2nc3ccccc3nc12 :: 100
CCc1ccc2nc3c(O)c(Br)cc(Br)c3nc2c1 :: 75

Hi, could you look up MBEC for each item in my list?
1. COCCOCCOCCOCCOC(=O)Oc1c(Br)cc(Br)c2nc3cc(Cl)ccc3nc12
2. Cc1cc2nc3c(O)c(Br)cc(Br)c3nc2c(C)c1C

a:
1: 18.8; 2: 25

---

Would you mind telling me the reported MBEC of each entry?
Test system: Staphylococcus aureus
measurement protocol: Induction of biofilm eradication of methicillin-resistant Staphylococcus aureus BAA-1707 after 24 hrs by calgary biofilm device method
Assay type: functional
Numbers only, in µM.

Check out these entries, answers already filled in.
COCCOCCOCCOCCOC(=O)Oc1c(Br)cc(Br)c2nc3cc(Oc4ccccc4)ccc3nc12 :: 4.69
Cc1cc2nc3c(O)c(Br)cc(Br)c3nc2c(C)c1C :: 75
CCc1ccc2nc3c(O)c(Br)cc(Br)c3nc2c1 :: 150
CS(=O)(=O)N1CCN(C(=O)Oc2c(Br)cc(Br)c3nc4ccccc4nc23)C1=O :: 75

Let us move to another entry and its MBEC.
q: Please state recorded MBEC (tested on Staphylococcus aureus) of CC1=C(C)C(=O)C(COC(=O)OCOc2c(Br)cc(Br)c3nc4ccccc4nc23)=C(C)C1=O
a: 75

---

Tested on: Staphylococcus aureus
measurement protocol: Bactericidal activity against methicillin-resistant Staphylococcus aureus 2 planktonic cells after 24 hrs by calgary biofilm device method
Type: organism-based
measured metric: log10(MBC) (log10 of the value in µM)
Quick note: numbers are log10 of MBC, with µM as the unit.

Known results for molecules:
CN[C@H](CC(C)C)C(=O)N[C@H]1C(=O)N[C@@H](CC(N)=O)C(=O)N[C@H]2C(=O)N[C@H]3C(=O)N[C@H](C(=O)N[C@H](C(=O)O)c4cc(O)cc(O)c4-c4cc3ccc4O)[C@H](O)c3ccc(c(Cl)c3)Oc3cc2cc(c3O[C@@H]2O[C@H](CO)[C@@H](O)[C@H](O)[C@H]2O[C@H]2C[C@](C)(N)[C@H](O)[C@H](C)O2)Oc2ccc(cc2Cl)[C@H]1O :: 0.48
CCc1ccc2nc3c(O)c(Br)cc(Br)c3nc2c1 :: 1.88
CCCCCCCCCC(=O)N[C@@H](Cc1c[nH]c2ccccc12)C(=O)N[C@H](CC(N)=O)C(=O)N[C@@H](CC(=O)O)C(=O)N[C@@H]1C(=O)NCC(=O)N[C@@H](CCCN)C(=O)N[C@@H](CC(=O)O)C(=O)N[C@H](C)C(=O)N[C@@H](CC(=O)O)C(=O)NCC(=O)N[C@H](CO)C(=O)N[C@@H]([C@H](C)CC(=O)O)C(=O)N[C@@H](CC(=O)c2ccccc2N)C(=O)O[C@@H]1C :: 1.80
C[C@H]1c2cccc(O)c2C(=O)C2=C(O)[C@]3(O)C(=O)C(C(N)=O)=C(O)[C@@H](N(C)C)[C@@H]3[C@@H](O)[C@@H]21.O :: 0.30
CO[C@H]1/C=C/O[C@@]2(C)Oc3c(C)c(O)c4c(O)c(c(/C=N/N5CCN(C)CC5)c(O)c4c3C2=O)NC(=O)/C(C)=C\C=C\[C@H](C)[C@H](O)[C@@H](C)[C@@H](O)[C@@H](C)[C@H](OC(C)=O)[C@@H]1C :: 0.30

Please look at the following molecule next.
q: Any idea what log10(MBC) was measured for N#CC(C#N)=NNc1cccc(Cl)c1 [CARBONYL CYANIDE M-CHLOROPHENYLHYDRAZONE] ?
a: 1.50
